- assaySystem: T1, human CDH6 on tumor cells (OVCAR3 cells, PA-1 cells) (human, UniProt P55285 54-790)
- T1 sequence: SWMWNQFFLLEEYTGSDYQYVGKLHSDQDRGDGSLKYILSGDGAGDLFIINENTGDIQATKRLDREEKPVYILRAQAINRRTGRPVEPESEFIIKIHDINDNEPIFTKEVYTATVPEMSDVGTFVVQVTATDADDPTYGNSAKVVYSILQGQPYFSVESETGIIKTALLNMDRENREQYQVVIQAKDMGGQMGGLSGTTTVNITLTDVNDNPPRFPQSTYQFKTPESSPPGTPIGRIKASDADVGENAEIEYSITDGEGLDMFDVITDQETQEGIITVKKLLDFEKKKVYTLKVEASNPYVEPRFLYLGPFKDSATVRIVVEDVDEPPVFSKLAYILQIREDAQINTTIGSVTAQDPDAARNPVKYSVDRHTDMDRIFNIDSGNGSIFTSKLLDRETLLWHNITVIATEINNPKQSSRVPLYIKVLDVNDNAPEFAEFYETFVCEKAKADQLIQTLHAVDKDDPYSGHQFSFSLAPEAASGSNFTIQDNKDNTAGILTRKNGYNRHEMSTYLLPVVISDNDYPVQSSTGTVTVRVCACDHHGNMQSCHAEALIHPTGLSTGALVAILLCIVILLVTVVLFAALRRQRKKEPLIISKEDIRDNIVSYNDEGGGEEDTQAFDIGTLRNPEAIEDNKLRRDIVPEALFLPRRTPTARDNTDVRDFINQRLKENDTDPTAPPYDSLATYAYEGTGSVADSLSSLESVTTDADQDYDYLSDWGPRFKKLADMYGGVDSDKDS
- test: FACS, OVCAR3 cells
readoutLabel: Max MFI (MFI)
Respond numerically; units are MFI and should not be typed.

## Input For the binder hCDH6-6-H1L5 (antibody, V domains shown, Humanized) VH: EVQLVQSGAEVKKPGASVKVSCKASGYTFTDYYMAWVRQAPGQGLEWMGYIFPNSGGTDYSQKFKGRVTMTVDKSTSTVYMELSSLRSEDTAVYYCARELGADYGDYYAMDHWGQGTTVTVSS VL: DIVMTQSPLSLPVTPGEPASISCRASENIDSYLAWYLQKPGKSPQLLVYSATLLADGVPDRFSGSGSGTDFTLKISRVEAEDVGVYYCQHYYRTPPTFGQGTKLEIK , report Max MFI.
## Output 14200

## Input Respond only with Max MFI recorded for hCDH6-6-H2L2 (antibody, V domains shown, Humanized) VH: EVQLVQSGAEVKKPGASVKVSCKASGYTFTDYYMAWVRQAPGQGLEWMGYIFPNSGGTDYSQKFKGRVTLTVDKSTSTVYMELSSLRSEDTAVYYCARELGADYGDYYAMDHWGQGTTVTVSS VL: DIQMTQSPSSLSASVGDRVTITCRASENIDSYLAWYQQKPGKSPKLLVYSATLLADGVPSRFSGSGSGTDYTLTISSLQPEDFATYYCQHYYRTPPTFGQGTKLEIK
## Output 14300

## Input Look up and state reported Max MFI for hCDH6-6-H2L4 (antibody, V domains shown, Humanized) VH: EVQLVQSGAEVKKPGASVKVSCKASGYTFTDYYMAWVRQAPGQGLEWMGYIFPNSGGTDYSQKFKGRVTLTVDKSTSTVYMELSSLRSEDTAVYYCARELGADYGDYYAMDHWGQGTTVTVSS VL: DIQMTQSPSSLSASVGDRVTITCRASENIDSYLAWYQQKPGKSPKLLVYSATLLADGVPSRFSGSGSGTDYTLTISSLQPEDFARYYCQHYYRTPPTFGQGTKLEIK
## Output 14300

## Input Give Max MFI for hCDH6-6-H3L3 (antibody, V domains shown, Humanized) VH: EVQLVQSGAEVKKPGASVKVSCKASGYTFTDYYMAWVRQAPRQGLEWMGYIFPNSGGTDYSQKFKGRVTMTVDKSTSTVYMELSSLRSEDTAVYYCARELGADYGDYYAMDHWGQGTTVTVSS VL: DIQMTQSPSSLSASVGDRVTITCRASENIDSYLAWYQQKPGKSPQLLVYSATLLADGVPSRFSGSGSGTDYTLTISSLQPEDFATYYCQHYYRTPPTFGQGTKLEIK
## Output 14300

## Input State its Max MFI: hCDH6-6-H1L2 (antibody, V domains shown, Humanized) VH: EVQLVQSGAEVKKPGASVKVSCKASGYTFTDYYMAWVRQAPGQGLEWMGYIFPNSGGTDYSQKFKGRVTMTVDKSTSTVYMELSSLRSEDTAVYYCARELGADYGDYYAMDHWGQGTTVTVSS VL: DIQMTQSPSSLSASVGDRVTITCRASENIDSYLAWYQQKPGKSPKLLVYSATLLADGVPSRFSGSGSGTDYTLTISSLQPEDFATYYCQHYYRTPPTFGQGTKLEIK
## Output 14300

## Input Given hCDH6-6-H2L5 (antibody, V domains shown, Humanized) VH: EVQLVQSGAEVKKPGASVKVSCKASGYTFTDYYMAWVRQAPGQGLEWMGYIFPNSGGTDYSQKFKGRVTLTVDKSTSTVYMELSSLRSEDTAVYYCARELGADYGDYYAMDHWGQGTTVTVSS VL: DIVMTQSPLSLPVTPGEPASISCRASENIDSYLAWYLQKPGKSPQLLVYSATLLADGVPDRFSGSGSGTDFTLKISRVEAEDVGVYYCQHYYRTPPTFGQGTKLEIK , respond with its Max MFI.
## Output 14600

## Input Identify measured Max MFI corresponding to CHI-CDH6-6 (antibody, human IgG1, kappa, V domains shown, also called CHI-hCDH6-6; chimeric antibody of murine CDH6-6) VH: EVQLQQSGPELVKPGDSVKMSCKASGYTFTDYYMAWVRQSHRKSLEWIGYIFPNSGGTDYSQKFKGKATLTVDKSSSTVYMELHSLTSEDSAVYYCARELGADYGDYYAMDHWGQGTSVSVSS VL: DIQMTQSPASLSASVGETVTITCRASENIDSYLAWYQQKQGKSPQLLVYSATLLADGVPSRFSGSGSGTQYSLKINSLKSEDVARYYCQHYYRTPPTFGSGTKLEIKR
## Output 14100

## Input Input hCDH6-6-H3L1 (antibody, V domains shown, Humanized) VH: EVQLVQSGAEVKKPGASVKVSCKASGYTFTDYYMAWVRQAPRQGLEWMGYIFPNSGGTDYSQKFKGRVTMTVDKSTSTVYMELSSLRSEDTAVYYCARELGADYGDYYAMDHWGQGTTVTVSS VL: DIQMTQSPSSLSASVGDRVTITCRASENIDSYLAWYQQKPGKSPKLLLYSATLLADGVPSRFSGSGSGTDYTLTISSLQPEDFATYYCQHYYRTPPTFGQGTKLEIK , output reported Max MFI.
## Output 13700

## Input // fetch Max MFI given entry hCDH6-6-H3L5 (antibody, V domains shown, Humanized) VH: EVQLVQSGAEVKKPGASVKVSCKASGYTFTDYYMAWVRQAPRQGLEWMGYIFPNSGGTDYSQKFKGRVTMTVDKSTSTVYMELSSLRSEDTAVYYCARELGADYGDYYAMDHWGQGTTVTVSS VL: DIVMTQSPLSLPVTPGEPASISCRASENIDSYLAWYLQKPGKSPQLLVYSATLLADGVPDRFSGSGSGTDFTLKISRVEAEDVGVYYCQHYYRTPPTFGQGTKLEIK
## Output 14200

## Input Please give the documented Max MFI of hCDH6-6-H1L3 (antibody, V domains shown, Humanized) VH: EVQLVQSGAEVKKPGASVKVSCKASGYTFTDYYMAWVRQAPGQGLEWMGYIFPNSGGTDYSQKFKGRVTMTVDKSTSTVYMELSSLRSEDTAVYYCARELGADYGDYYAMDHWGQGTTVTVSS VL: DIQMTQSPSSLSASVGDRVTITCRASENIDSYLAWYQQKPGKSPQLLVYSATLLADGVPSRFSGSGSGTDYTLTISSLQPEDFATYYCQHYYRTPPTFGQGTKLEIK
## Output 13800
